Cited source: PubChem BioAssay

- TARGET: Follistatin-related protein 3 (Homo sapiens)
- PROTOCOL: FSTL3 binders on small-molecule microarrays, primary screen, biochemical, small-molecule microarray, 635 nm fluorescence (AID 1105);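 further: score merges emission near 667 nm and signal to noise per printed spot across three slides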
- STUDY CONDITIONS: FSTL3 binding, higher = more signal
Items are presented alongside their recorded composite z-score.
Give the figure by itself; no unit, no explanation.

Please fill in: composite z-score reported for CO[C@H]1COC(=O)[C@H](C)COC(=O)CC=C[C@@H](C)[C@H](OC)COC(=O)CC=C[C@@H]1C = 1.32

Briefly, composite z-score measured for CC(C)=NOCc1cccc(-c2cc(-c3ccccc3)no2)c1 : 0.597

Consider CO[C@@H]1COC(=O)[C@H](C)NC(=O)[C@@H](C)COC(=O)CCC[C@H]1C . Its measured composite z-score is 1.11

Entry under test: COCC1=C2[C@@H](CCc3ccccc3)OB(O)C[C@@H]2n2c(=O)n(-c3ccccc3)c(=O)n2C1 . Its composite z-score was 0.444

The value of composite z-score measured for the compound COCCOC(=O)N1C(=O)[C@@]2(c3cc(C#Cc4ccc(OC)cc4)ccc31)[C@H](C(=O)N1CCN(c3ncccn3)CC1)[C@H]1C(=O)O[C@H](c3ccccc3)[C@H](c3ccccc3)N1[C@@H]2c1ccc(OCCO)cc1 turned out to be 1.11

###

Listing: composite z-score of selected molecules
- TARGET: Calmodulin-1 (Homo sapiens)
- PROTOCOL: CALM1 binders on microarrays, EGTA buffer, profiling panel, biochemical, small-molecule microarray, Cy5-labelled CALM1 (AID 1111);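 further: labelled calmodulin applied in Tris saline Tween buffer holding calcium plus EGTA and DTT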
- STUDY CONDITIONS: Cy5-CALM1 binding fluorescence, higher = more signal
Please respond with just the number, no unit label.

Answered cases to consult:
>>> recorded_value("COCCOC(=O)N1C(=O)[C@@]2(c3cc(C#CC4(O)CCCCCC4)ccc31)[C@H](C(=O)N1CCN(c3ncccn3)CC1)[C@H]1C(=O)O[C@H](c3ccccc3)[C@H](c3ccccc3)N1[C@@H]2c1ccc(OCCO)cc1")
0.942
>>> recorded_value("CC[C@@H](c1ccccc1)n1c(=O)n2n(c1=O)[C@H]1[C@H](O)[C@@H]3O[C@@H]3C(=NOCC=C(C)CCC=C(C)C)[C@H]1CC2")
-0.0812
>>> recorded_value("O=C1CCCC2OC12C(O)CCc1ccccc1 (stereo not drawn)")
-0.429
>>> recorded_value("O=C1[C@H]2[C@H]3[C@H](O)[C@H](O)CC(=NOCc4ccccc4)[C@H]3CC[C@H]2C(=O)N1c1cccc(Oc2ccccc2)c1")
0.364
>>> recorded_value("Cc1ccc(S(=O)(=O)N[C@@H]2COC(=O)[C@H](C)COC(=O)CC=C[C@H]2C)cc1")
-0.163

Per the records, this molecule ( C[C@H]1CC[C@@H](C(=O)O)N[C@@H]1c1ccc(C#CCN(C)C)cc1 ) has composite z-score equal to -0.263

Per the records, this molecule ( CCCCC(=C=CC[C@H](O)c1ccccc1OCCO)C[C@H](O)COCc1ccccc1 ) has composite z-score equal to 1.22

Documented composite z-score of C=CC[C@@H]1C=C[C@H](ON=C(C)CCN2CCc3nc(CC)c(CC)cc3C2)[C@@H](CO)O1 : -0.42

###

- PROTOCOL: S. cerevisiae growth modulation with rapamycin, primary screen, strain BY4716, OD600, 96 h (AID 1091); further: test concentration not given here
- STUDY CONDITIONS: higher = more signal, called active from +8 up or from −8 down
# cutoff 0.1 applies to z-score; >= gives Yes, < gives No

Illustrative cases are given below, each with its answer.
>>> assigned_category("CC(C)N1CC=CC23O[C@@H]4C=CCCOC(=O)C4[C@H]2C(=O)N(CCCCCCO)[C@@H]3C1=O (some centres not stated)")
"Yes"
>>> assigned_category("C[N+](C)(C)CCCCCCNC(=O)[C@@H]1C[C@@H]2C(=O)N3CCC[C@H]3C(=O)N2[C@@H]1c1cccc(OCCO)c1")
"No"
>>> assigned_category("COCCOC(=O)N1C(=O)[C@@]2(c3cc(C#Cc4ccc(OC)cc4)ccc31)[C@H](C(=O)N1CCN(c3ncccn3)CC1)[C@H]1C(=O)O[C@H](c3ccccc3)[C@H](c3ccccc3)N1[C@@H]2c1ccc(OCCO)cc1")
"Yes"
>>> assigned_category("COCC(=C=CC[C@@H](O)c1ccccc1OCCO)CCO")
"Yes"
>>> assigned_category("C=CCC(OC(C)=O)[C@@H]1[C@@H](N(Cc2cc3ccccc3o2)C(=O)Cc2ccc(F)cc2)c2cc(OCCCO)ccc2N1C(=O)Cc1ccc(OC)cc1 (some centres not stated)")
"No"
>>> assigned_category("CC(C)CON=C1C[C@@H](O)[C@@H](O)[C@@H]2[C@@H]3C(=O)N([C@@H](C)c4ccccc4)C(=O)[C@@H]3CC[C@H]12")
"No"

Kindly review the next compound as well.
Check this compound for z-score at or above 0.1: COCCOC(=O)N1C(=O)[C@@]2(c3ccccc31)[C@H](C(N)=O)[C@H]1C(=O)O[C@H](c3ccccc3)[C@H](c3ccccc3)N1[C@@H]2c1ccccc1OCCO
Yes
